Form field: kinase still bound, per cent of control (one value per entry).
- EXPERIMENTAL_TARGET: DCLK2 (human)
- PROCEDURE_DETAILS: KINOMEscan competition binding
- COND: compound 10.0 µM
Reply numerically in %, unit not repeated.

| COMPOUND | PROPERTY | QUANTITATIVE_RESULT |
| --- | --- | --- |
| CCc1nc(-c2cccc(C)c2)c(-c2ccnc(NC(=O)c3ccccc3)c2)s1 | kinase still bound, per cent of control | 98 |
| C=CC(=O)Nc1ccc(C(=O)c2sc(Nc3ccc(N4CCN(C)CC4)cc3OC)nc2N)cc1 | kinase still bound, per cent of control | 28 |
| CCN1CCN(Cc2ccc(NC(=O)c3ccc(C)c(/C=C/c4cnc5[nH]ccc5c4OC)c3)cc2C(F)(F)F)CC1 | kinase still bound, per cent of control | 100 |

Which kinase still bound, per cent of control reading was recorded for the compound "Cc1cn(-c2cc(C(=O)Nc3ccc(C)c(NC(=O)c4ccno4)c3)cc(C(F)(F)F)c2)cn1" ?
100

Which kinase still bound, per cent of control reading was recorded for the compound "COc1ccc(N(C(=O)Oc2cc(C(=O)Nc3cccc(C(F)(F)F)c3)ccc2C)c2ccnc(Nc3ccc(N4CCN(C)CC4)cc3)n2)c(OC)c1" ?
100

Which kinase still bound, per cent of control reading was recorded for the compound CC1=C(C(=O)Nc2cc3cn[nH]c3cc2F)C(c2ccc(C(F)(F)F)cc2)CC(=O)N1 (stereo not drawn) ?
87

Which kinase still bound, per cent of control reading was recorded for the compound "COc1cc(N2CCC(C(N)=O)CC2)ccc1Nc1nc(N)c(Cl)c(Nc2ccccc2S(=O)(=O)C(C)C)n1" ?
100

* * *

- EXPERIMENTAL_TARGET: CDC2L2 (human)
- PROCEDURE_DETAILS: KINOMEscan competition binding
- COND: compound 10.0 µM
Form field: kinase still bound, per cent of control (one value per entry).
Reply numerically in %, unit not repeated.

Worked examples follow.
| COMPOUND | UNIT_SPEC | kinase still bound, per cent of control |
| --- | --- | --- |
| CC1=C(C(=O)Nc2cc3cn[nH]c3cc2F)C(c2ccc(C(F)(F)F)cc2)CC(=O)N1 (stereo not drawn) | % | 96 |
| Cc1cn(-c2cc(C(=O)Nc3ccc(C)c(NC(=O)c4ccno4)c3)cc(C(F)(F)F)c2)cn1 | % | 100 |
| COc1cc2c(Nc3ccc(NC(=O)c4ccccc4)cc3)ncnc2cc1OCCCN1CCOCC1 | % | 6.9 |

Which kinase still bound, per cent of control reading was recorded for the compound "CCN1CCN(Cc2ccc(NC(=O)c3ccc(C)c(/C=C/c4cnc5[nH]ccc5c4OC)c3)cc2C(F)(F)F)CC1" ?
5.4

Which kinase still bound, per cent of control reading was recorded for the compound "O=c1[nH]c2ccccc2n1C1CCN(Cc2ccc(-c3nc4cc5[nH]cnc5cc4nc3-c3ccccc3)cc2)CC1" ?
100

Which kinase still bound, per cent of control reading was recorded for the compound COc1cc(C)c(Sc2cnc(NC(=O)c3ccc(CNC(C)C(C)C)cc3)s2)cc1C(=O)N1CCN(C(C)=O)CC1 (stereo not drawn) ?
100

Which kinase still bound, per cent of control reading was recorded for the compound "N#C/C(=C1/Nc2ccccc2S1)c1ccnc(NCCc2cccnc2)n1" ?
85

Which kinase still bound, per cent of control reading was recorded for the compound "COc1cc2ncnc(Nc3cccc(Cl)c3)c2cc1OC" ?
77

Which kinase still bound, per cent of control reading was recorded for the compound "CNC(=O)Nc1ccc(-c2nc(N3CC4CCC(C3)O4)c3cnn(C4CCC5(CC4)OCCO5)c3n2)cc1" ?
97

* * *

- EXPERIMENTAL_TARGET: RPS6KA5 KD2 (human)
- PROCEDURE_DETAILS: KINOMEscan competition binding
- COND: compound 10.0 µM
Form field: kinase still bound, per cent of control (one value per entry).
Answer with the figure and its unit, nothing else.

Worked examples follow.
| MOLECULE | EXPERIMENTAL_TARGET | RESULT |
| --- | --- | --- |
| CC(=O)c1c(C)c2cnc(Nc3ccc(N4CCNCC4)cn3)nc2n(C2CCCC2)c1=O | RPS6KA5 KD2 (human) | 15% |
| CCN1CCN(Cc2ccc(NC(=O)c3ccc(C)c(/C=C/c4cnc5[nH]ccc5c4OC)c3)cc2C(F)(F)F)CC1 | RPS6KA5 KD2 (human) | 100% |

Which kinase still bound, per cent of control reading was recorded for the molecule "N#Cc1cc(-c2ccnc(Nc3ccc(-n4cnc(-c5cccnc5)n4)cc3)n2)cc(N2CCOCC2)c1" ?
100%

Which kinase still bound, per cent of control reading was recorded for the molecule "O=c1[nH]c2ccccc2n1C1CCN(Cc2ccc(-c3nc4cc5[nH]cnc5cc4nc3-c3ccccc3)cc2)CC1" ?
99%

Which kinase still bound, per cent of control reading was recorded for the molecule "CCN(CCO)CCCOc1ccc2c(Nc3cc(CC(=O)Nc4cccc(F)c4)[nH]n3)ncnc2c1" ?
100%

Which kinase still bound, per cent of control reading was recorded for the molecule "COc1cc(N2CCC(C(N)=O)CC2)ccc1Nc1nc(N)c(Cl)c(Nc2ccccc2S(=O)(=O)C(C)C)n1" ?
100%

Which kinase still bound, per cent of control reading was recorded for the molecule "CCOc1cc(N2CCC(O)CC2)ccc1Nc1ncc2c(n1)N(C)c1ccccc1C(=O)N2C" ?
100%

Which kinase still bound, per cent of control reading was recorded for the molecule COc1cc(C)c(Sc2cnc(NC(=O)c3ccc(CNC(C)C(C)C)cc3)s2)cc1C(=O)N1CCN(C(C)=O)CC1 (stereo not drawn) ?
100%

* * *

- EXPERIMENTAL_TARGET: UniProt:Q9NWZ3
- Sequence (Q9NWZ3 whole entry, looked up): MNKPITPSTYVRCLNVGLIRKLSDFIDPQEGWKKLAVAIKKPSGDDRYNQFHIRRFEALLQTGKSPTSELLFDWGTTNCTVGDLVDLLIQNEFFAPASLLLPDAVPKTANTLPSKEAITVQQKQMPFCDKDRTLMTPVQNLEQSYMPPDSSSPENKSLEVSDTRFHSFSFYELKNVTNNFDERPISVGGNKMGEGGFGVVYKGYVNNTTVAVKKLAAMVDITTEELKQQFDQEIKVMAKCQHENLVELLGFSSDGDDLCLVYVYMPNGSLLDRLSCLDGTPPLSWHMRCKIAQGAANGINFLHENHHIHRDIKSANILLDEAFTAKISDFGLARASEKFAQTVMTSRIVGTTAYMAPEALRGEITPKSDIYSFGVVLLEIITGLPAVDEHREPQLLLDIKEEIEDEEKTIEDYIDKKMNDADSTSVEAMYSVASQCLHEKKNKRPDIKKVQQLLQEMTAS
- PROCEDURE_DETAILS: KINOMEscan competition binding
- COND: compound 10.0 µM
Threshold check on kinase still bound, per cent of control: strictly below 90% is 1; on or above 90% is 0.

Lab note: kinase still bound, per cent of control threshold 90%. Does this compound come in strictly under it? "O=c1[nH]c2ccccc2n1C1CCN(Cc2ccc(-c3nc4cc5[nH]cnc5cc4nc3-c3ccccc3)cc2)CC1"
1

Lab note: kinase still bound, per cent of control threshold 90%. Does this compound come in strictly under it? "COc1cc2c(Nc3ccc(NC(=O)c4ccccc4)cc3)ncnc2cc1OCCCN1CCOCC1"
1

* * *

- EXPERIMENTAL_TARGET: TLK2 (human) (UniProt Q86UE8)
- Sequence (Q86UE8 whole entry, looked up): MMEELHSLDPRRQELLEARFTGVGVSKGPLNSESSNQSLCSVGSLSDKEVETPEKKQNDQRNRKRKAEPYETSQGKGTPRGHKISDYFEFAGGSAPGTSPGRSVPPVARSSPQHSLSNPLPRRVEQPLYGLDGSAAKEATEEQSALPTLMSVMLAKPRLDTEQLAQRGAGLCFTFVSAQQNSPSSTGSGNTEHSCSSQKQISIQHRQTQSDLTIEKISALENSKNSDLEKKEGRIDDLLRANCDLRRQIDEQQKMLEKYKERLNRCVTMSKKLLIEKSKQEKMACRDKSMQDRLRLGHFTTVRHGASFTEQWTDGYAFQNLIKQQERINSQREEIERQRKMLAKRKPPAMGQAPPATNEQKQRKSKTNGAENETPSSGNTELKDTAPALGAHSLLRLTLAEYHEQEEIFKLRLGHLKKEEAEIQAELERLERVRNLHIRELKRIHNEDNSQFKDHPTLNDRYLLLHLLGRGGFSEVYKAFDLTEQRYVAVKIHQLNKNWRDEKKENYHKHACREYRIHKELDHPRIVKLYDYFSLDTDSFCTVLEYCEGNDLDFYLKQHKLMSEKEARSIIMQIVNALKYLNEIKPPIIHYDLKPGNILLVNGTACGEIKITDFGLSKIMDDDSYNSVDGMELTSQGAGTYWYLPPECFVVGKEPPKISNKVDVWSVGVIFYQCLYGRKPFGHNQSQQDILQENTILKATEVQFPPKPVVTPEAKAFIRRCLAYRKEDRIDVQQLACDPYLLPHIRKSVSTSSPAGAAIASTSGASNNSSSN
- PROCEDURE_DETAILS: KINOMEscan competition binding
- COND: compound 10.0 µM
Threshold check on kinase still bound, per cent of control: strictly below 80% is Criterion met; on or above 80% is Criterion not met.

Worked set:
| MOLECULE | CLASS |
| --- | --- |
| N#Cc1cc(-c2ccnc(Nc3ccc(-n4cnc(-c5cccnc5)n4)cc3)n2)cc(N2CCOCC2)c1 | Criterion met |
| CCCS(=O)(=O)Nc1ccc(F)c(C(=O)c2c[nH]c3ncc(Cl)cc23)c1F | Criterion met |
| CCOc1cc(N2CCC(O)CC2)ccc1Nc1ncc2c(n1)N(C)c1ccccc1C(=O)N2C | Criterion not met |
| CC1=C(C(=O)Nc2cc3cn[nH]c3cc2F)C(c2ccc(C(F)(F)F)cc2)CC(=O)N1 (stereo not given) | Criterion not met |
| N#C/C(=C1/Nc2ccccc2S1)c1ccnc(NCCc2cccnc2)n1 | Criterion met |
| O=c1[nH]c2ccccc2n1C1CCN(Cc2ccc(-c3nc4cc5[nH]cnc5cc4nc3-c3ccccc3)cc2)CC1 | Criterion not met |
| COc1cc2ncnc(Nc3cccc(Cl)c3)c2cc1OC | Criterion not met |
| C=CC(=O)Nc1ccc(C(=O)c2sc(Nc3ccc(N4CCN(C)CC4)cc3OC)nc2N)cc1 | Criterion not met |

Lab note: kinase still bound, per cent of control threshold 80%. Does this molecule come in strictly under it? "CCN1CCN(Cc2ccc(NC(=O)c3ccc(C)c(/C=C/c4cnc5[nH]ccc5c4OC)c3)cc2C(F)(F)F)CC1"
Criterion not met

Lab note: kinase still bound, per cent of control threshold 80%. Does this molecule come in strictly under it? "COc1cc2c(Nc3ccc(NC(=O)c4ccccc4)cc3)ncnc2cc1OCCCN1CCOCC1"
Criterion not met

* * *

Form field: kinase still bound, per cent of control (one value per entry).
- EXPERIMENTAL_TARGET: GSK3B (human)
- PROCEDURE_DETAILS: KINOMEscan competition binding
- COND: compound 10.0 µM
Reply numerically in %, unit not repeated.

Worked examples follow.
| COMPOUND | UNIT_SPEC | kinase still bound, per cent of control |
| --- | --- | --- |
| N#Cc1cc(-c2ccnc(Nc3ccc(-n4cnc(-c5cccnc5)n4)cc3)n2)cc(N2CCOCC2)c1 | % | 3.1 |
| C=CC(=O)Nc1ccc(C(=O)c2sc(Nc3ccc(N4CCN(C)CC4)cc3OC)nc2N)cc1 | % | 100 |
| CCN(CCO)CCCOc1ccc2c(Nc3cc(CC(=O)Nc4cccc(F)c4)[nH]n3)ncnc2c1 | % | 100 |
| CCOc1cc(N2CCC(O)CC2)ccc1Nc1ncc2c(n1)N(C)c1ccccc1C(=O)N2C | % | 100 |
| Cc1cn(-c2cc(C(=O)Nc3ccc(C)c(NC(=O)c4ccno4)c3)cc(C(F)(F)F)c2)cn1 | % | 100 |
| COc1cc2c(Nc3ccc(NC(=O)c4ccccc4)cc3)ncnc2cc1OCCCN1CCOCC1 | % | 70 |

Which kinase still bound, per cent of control reading was recorded for the compound "CCCS(=O)(=O)Nc1ccc(F)c(C(=O)c2c[nH]c3ncc(Cl)cc23)c1F" ?
100
